biological target: HLA-B*08:01; test: IEDB peptide-MHC binding, purified MHC/direct/fluorescence; filed as Kd, often an IC50 or EC50 that approximates it; bounds were set here for any values at or beyond the usual limits of such assays; details: source organism: Picosynechococcus sp. PCC 7002
pKd: −log10 of the molar value.
Property Measured: pKd

## Task Name the recorded pKd of the sequence listed here: `DTVLFNAGL`
## Result ≤ 4.70

----------
target: HLA-B*08:03; test: IEDB peptide-MHC binding, purified MHC/competitive/fluorescence; filed as Kd, often an IC50 or EC50 that approximates it; bounds were set here for any values at or beyond the usual limits of such assays; details: source organism: Human immunodeficiency virus 1
pKd: −log10 of the molar value.
Property Measured: pKd

## Task Name the recorded pKd of the sequence listed here: `GTEEIKSLY`
## Result ≤ 4.70

----------
biological target: HLA-B*51:01; experiment: IEDB peptide-MHC binding, purified MHC/competitive/radioactivity; filed as Kd, often an IC50 or EC50 that approximates it; bounds were set here for any values at or beyond the usual limits of such assays; conditions: source organism: Vaccinia virus WR
Exercise: state measured Kd for each of the sequences provided.
Numbers only, in µM.

{"Record Sequence": "KPAMSTYSDI", "Kd [µM]": 14}
{"Record Sequence": "SPAHLINKLL", "Kd [µM]": 5.34}
{"Record Sequence": "VPTNDHIPVV", "Kd [µM]": 0.0509}
{"Record Sequence": "LMIFISSFLL", "Kd [µM]": 1.6}

## Task Name the recorded Kd of the sequence listed here: `LPNVDLTTM`
## Result 0.0622

----------
target: HLA-A*02:01; test: IEDB peptide-MHC binding, purified MHC/direct/fluorescence; filed as Kd, often an IC50 or EC50 that approximates it; bounds were set here for any values at or beyond the usual limits of such assays; conditions: source organism: Mammarenavirus juninense
Exercise: state measured Kd for each of the sequences provided.

{"Record Sequence": "YAKKFKTGM", "Result": "≥ 20 µM"}

Next up:
## Task Name the recorded Kd of the sequence listed here: `GKLDPTNTL`
## Result ≥ 20 µM

----------
molecular target: HLA-B*51:01; assay: IEDB peptide-MHC binding, purified MHC/competitive/fluorescence; filed as Kd, often an IC50 or EC50 that approximates it; bounds were set here for any values at or beyond the usual limits of such assays; conditions: source organism: Coxiella burnetii
Property Measured: Kd

## Task Name the recorded Kd of the sequence listed here: `KFFMVHSLK`
## Result ≥ 20 µM

----------
molecular target: HLA-A*03:01; test: IEDB peptide-MHC binding, purified MHC/direct/fluorescence; filed as Kd, often an IC50 or EC50 that approximates it; bounds were set here for any values at or beyond the usual limits of such assays; conditions: source organism: Influenza A virus (A/swine/Hong Kong/273/1994(H1N1))
pKd: −log10 of the molar value.
Property Measured: pKd

## Task Name the recorded pKd of the sequence listed here: `GMFNMLSTV`
## Result ≤ 4.70

----------
target: HLA-A*02:11; test: IEDB peptide-MHC binding, purified MHC/competitive/fluorescence; filed as Kd, often an IC50 or EC50 that approximates it; bounds were set here for any values at or beyond the usual limits of such assays; conditions: source organism: Escherichia coli
Property Measured: Kd

## Task Name the recorded Kd of the sequence listed here: `LMQWWSDYV`
## Result ≤ 100 pM

----------
biological target: HLA-A*11:01; assay: IEDB peptide-MHC binding, purified MHC/competitive/fluorescence; filed as Kd, often an IC50 or EC50 that approximates it; bounds were set here for any values at or beyond the usual limits of such assays; details: source organism: Variola virus
pKd: −log10 of the molar value.
Property Measured: pKd

## Task Name the recorded pKd of the sequence listed here: `DILASIIDY`
## Result ≤ 4.70

----------
molecular target: HLA-B*46:01; test: IEDB peptide-MHC binding, purified MHC/competitive/fluorescence; filed as Kd, often an IC50 or EC50 that approximates it; bounds were set here for any values at or beyond the usual limits of such assays; conditions: source organism: Escherichia coli E22
pKd: −log10 of the molar value.
Property Measured: pKd

## Task Name the recorded pKd of the sequence listed here: `YQTYVSPGA`
## Result ≤ 4.70

----------
target: HLA-B*07:02; assay: IEDB peptide-MHC binding, purified MHC/competitive/radioactivity; filed as Kd, often an IC50 or EC50 that approximates it; bounds were set here for any values at or beyond the usual limits of such assays; settings: source organism: SARS coronavirus Tor2
Property Measured: pKd
Give bare numbers, as −log10 of the molar value.

{"Record Sequence": "NPIQLSSYSL", "pKd": 6.38}
{"Record Sequence": "APAHVSTIGV", "pKd": 7.46}

Next up:
## Task Name the recorded pKd of the sequence listed here: `RPPLNRNYV`
## Result 7.21

----------
molecular target: HLA-A*02:01; experiment: IEDB peptide-MHC binding, purified MHC/direct/fluorescence; filed as Kd, often an IC50 or EC50 that approximates it; bounds were set here for any values at or beyond the usual limits of such assays; details: source organism: Escherichia coli O157:H7
Property Measured: Kd

## Task Name the recorded Kd of the sequence listed here: `YLGTPNNTY`
## Result ≥ 20 µM

----------
target: HLA-B*18:01; test: IEDB peptide-MHC binding, purified MHC/direct/fluorescence; filed as Kd, often an IC50 or EC50 that approximates it; bounds were set here for any values at or beyond the usual limits of such assays; conditions: source organism: Vibrio vulnificus YJ016
pKd: −log10 of the molar value.
Property Measured: pKd

## Task Name the recorded pKd of the sequence listed here: `SVFELSNFA`
## Result ≤ 4.70

----------
target: HLA-B*46:01; test: IEDB peptide-MHC binding, purified MHC/competitive/fluorescence; filed as Kd, often an IC50 or EC50 that approximates it; bounds were set here for any values at or beyond the usual limits of such assays; conditions: source organism: Giardia lamblia ATCC 50803
Property Measured: Kd (µM)
Give bare numbers, in µM.

## Task Name the recorded Kd of the sequence listed here: `YSAEALLPY`
## Result 0.0551

----------
target: HLA-B*08:02; test: IEDB peptide-MHC binding, purified MHC/direct/fluorescence; filed as Kd, often an IC50 or EC50 that approximates it; bounds were set here for any values at or beyond the usual limits of such assays; conditions: source organism: Salmonella enterica subsp. enterica serovar Typhimurium str. LT2
pKd: −log10 of the molar value.
Property Measured: pKd

## Task Name the recorded pKd of the sequence listed here: `FPASHMATY`
## Result ≤ 4.70

----------
target: HLA-B*27:03; assay: IEDB peptide-MHC binding, purified MHC/competitive/fluorescence; filed as Kd, often an IC50 or EC50 that approximates it; bounds were set here for any values at or beyond the usual limits of such assays; conditions: source organism: Homo sapiens
Property Measured: Kd

## Task Name the recorded Kd of the sequence listed here: `KQMEDGHTL`
## Result ≥ 20 µM

----------
molecular target: HLA-A*68:02; assay: IEDB peptide-MHC binding, purified MHC/competitive/fluorescence; filed as Kd, often an IC50 or EC50 that approximates it; bounds were set here for any values at or beyond the usual limits of such assays; conditions: source organism: Entamoeba dispar SAW760
Property Measured: Kd

## Task Name the recorded Kd of the sequence listed here: `LMTHTWHAK`
## Result ≥ 20 µM

----------
biological target: HLA-A*01:01; assay: IEDB peptide-MHC binding, purified MHC/competitive/radioactivity; filed as Kd, often an IC50 or EC50 that approximates it; bounds were set here for any values at or beyond the usual limits of such assays; conditions: source organism: Mammarenavirus lassaense
Property Measured: Kd (µM)
One number for each entry, in µM.

## Task Name the recorded Kd of the sequence listed here: `MCPFLFLAV`
## Result 0.492

----------
biological target: HLA-B*51:01; assay: IEDB peptide-MHC binding, purified MHC/competitive/fluorescence; filed as Kd, often an IC50 or EC50 that approximates it; bounds were set here for any values at or beyond the usual limits of such assays; conditions: source organism: Entamoeba dispar SAW760
pKd: −log10 of the molar value.
Property Measured: pKd

## Task Given `LMTHTWHAK` , report its pKd on HLA-B*51:01.
## Result ≤ 4.70

----------
target: HLA-A*02:19; assay: IEDB peptide-MHC binding, purified MHC/direct/fluorescence; filed as Kd, often an IC50 or EC50 that approximates it; bounds were set here for any values at or beyond the usual limits of such assays; conditions: source organism: Limestone Canyon virus
Property Measured: Kd

## Task Name the recorded Kd of the sequence listed here: `EKLKKKSAF`
## Result ≥ 20 µM

----------
molecular target: HLA-A*33:01; assay: IEDB peptide-MHC binding, purified MHC/competitive/radioactivity; filed as Kd, often an IC50 or EC50 that approximates it; bounds were set here for any values at or beyond the usual limits of such assays; conditions: source organism: Dengue virus 1 Brazil/97-11/1997
Property Measured: pKd
One number for each entry, as −log10 of the molar value.

Report pKd for every entry below.
1. EDTMTYKCPR
2. SGNDIANCLR

## Result
[6.09, 6.85]
